assay explanation: Selectivity index, ratio of IC50 for rat L6 cells to IC50 for antitrypanosomal activity against bloodstream form of Trypanosoma brucei rhodesiense STIB900
Assay type: toxicity
setup conditions: read-out: Ratio IC50
Quick reference: selectivity ratio of the listed items.
measured metric: selectivity ratio

1. CC1(C)CC(=O)c2sc(NC(=O)c3sc4c(Br)cccc4c3Cl)nc2C1
4
2. O=C1CCCc2nc(NC(=O)c3sc4ccccc4c3Cl)sc21
3
3. COc1cccc2cc(C(=O)Nc3nc4c(s3)C(=O)CC(C)(C)C4)sc12
6
4. CC1(C)CC(=O)c2sc(NC(=O)c3cc4ccccc4s3)nc2C1
13
5. CC1(C)CC(=O)c2sc(NC(=O)c3nc4ccccc4s3)nc2C1
3
